What TGI was measured for each of the following?
- Test system: SK-MEL-5 melanoma
- method notes: NCI tumour cell line growth inhibition, 48 h
Answers are plain numbers, in µM.

// known answers, use as guide
[[record]]
molecule = "COc1cc(C2c3cc4c(cc3[C@@H](Nc3cccc([N+](=O)[O-])c3)C3COC(=O)[C@H]23)OCO4)cc(OC)c1O (some centres undefined)"
unit_tag = "µM"
recorded_number = 7.87

[[record]]
molecule = "CC(C)c1ccc(NC(=S)NC(=O)c2ccccc2)cc1"
unit_tag = "µM"
recorded_number = 27

[[record]]
molecule = "COc1cc2c(c(OC)c1OC)-c1ccc(OC)c(=O)cc1[C@@H](N(C)C=O)CC2"
unit_tag = "µM"
recorded_number = 0.0401


The following molecules each have a reported value; give each one's TGI.
1. C=C1C[C@@]2(C)C(CC[C@]3(C)C2CC=C2C4CC(C)(C)C[C@@H](OC(=O)/C(C)=C\C)[C@]4(C(=O)O)CC[C@]23C)C(C)(C)C1=O (some centres undefined)
2. CN1CCN(c2ccc(C(=O)Nc3cc(-c4cccc(NS(=O)(=O)c5ccccc5)c4)[nH]n3)cc2)CC1
3. C1=Nc2ccccc2C=Nc2ccccc2C=Nc2ccccc2C=Nc2ccccc21.[Cl-].[Pt+2]
4. CN(C)CCCn1c2nc(=O)[nH]c(=O)c-2nc2cc(Cl)c(Cl)cc21
5. Nc1ccc(Oc2ccc(C34CC5CC6C3CC3CC4C(C5)C6(c4ccc(Oc5ccc(N)c(O)c5)cc4)C3)cc2)cc1O
6. O=C(OCc1ccccc1)N1CCN(C(=O)OCc2ccccc2)CCN(C(=O)OCc2ccccc2)CCN(C(=O)OCc2ccccc2)CCN(C(=O)OCc2ccccc2)CC1
7. O=[N+]([O-])c1ccc2nc3ccccc3cc2c1

11.2
9.23
48.3
3.12
9.24
33.3
14.4
